# target of assay: Gastrin-releasing peptide receptor (Rattus norvegicus)
# test summary: Tested for the inhibition of Bombesin-stimulated amylase release at 50 nM concentration in the presence of 0.2 nM of bombesin in rat pranceatic acini
# Assay type: functional
Where a SMILES comes first, the peptide text is derived from it. The star is where a group is joined. X1 = CSCC[C@H](NC[C@H](CC(C)C)N*)C(N)=O; X2 = CC(=O)NC[C@H](CC(C)C)N*; For = O=C*
result type: Release (%)

The cases that follow already have their Release on record.
compound: CC(C)C[C@@H](CN[C@@H](CC(C)C)C(N)=O)NC(=O)[C@H](Cc1c[nH]cn1)NC(=O)CNC(=O)[C@@H](NC(=O)[C@H](C)NC(=O)[C@H](Cc1c[nH]c2ccccc12)NC(=O)[C@H](CCC(N)=O)NC(=O)[C@H](CC(N)=O)NC(=O)CNC(=O)[C@H](CC(C)C)NC(=O)[C@H](CCCN=C(N)N)NC(=O)[C@H](CCC(N)=O)NC(=O)[C@@H]1CCC(=O)N1)C(C)C
Release / %: 11.6
--
compound: CC(=O)NC[C@H](CC(C)C)NC(=O)[C@H](Cc1c[nH]cn1)NC(=O)CNC(=O)[C@@H](NC(=O)[C@H](C)NC(=O)[C@H](Cc1cn(C=O)c2ccccc12)NC(=O)[C@H](Cc1c[nH]cn1)NC(=O)[C@H](CCC(N)=O)NC(C)=O)C(C)C (Ac-QHW(For)AVGH-X2)
Release / %: 15.8

[I] CSCC[C@H](NC[C@H](CC(C)C)NC(=O)[C@H](Cc1c[nH]cn1)NC(=O)CNC(=O)[C@@H](NC(=O)[C@H](C)NC(=O)[C@@H](N)Cc1c[nH]c2ccccc12)C(C)C)C(N)=O (H-WAVGH-X1)
[II] CC(=O)NC[C@H](CC(C)C)NC(=O)[C@H](Cc1c[nH]cn1)NC(=O)CNC(=O)[C@@H](NC(=O)[C@H](C)NC(=O)[C@H](Cc1c[nH]c2ccccc12)NC(=O)[C@H](Cc1c[nH]cn1)NC(=O)[C@H](N)Cc1ccccc1)C(C)C
Ask | Lower Release: I or II ? Respond using the label that marks the chosen record.
Reply | II
(II: 9%, I: 20.8%)

* * *

# target of assay: Gastrin-releasing peptide receptor (Rattus norvegicus) (UniProt P52500)
# Sequence (P52500 whole entry): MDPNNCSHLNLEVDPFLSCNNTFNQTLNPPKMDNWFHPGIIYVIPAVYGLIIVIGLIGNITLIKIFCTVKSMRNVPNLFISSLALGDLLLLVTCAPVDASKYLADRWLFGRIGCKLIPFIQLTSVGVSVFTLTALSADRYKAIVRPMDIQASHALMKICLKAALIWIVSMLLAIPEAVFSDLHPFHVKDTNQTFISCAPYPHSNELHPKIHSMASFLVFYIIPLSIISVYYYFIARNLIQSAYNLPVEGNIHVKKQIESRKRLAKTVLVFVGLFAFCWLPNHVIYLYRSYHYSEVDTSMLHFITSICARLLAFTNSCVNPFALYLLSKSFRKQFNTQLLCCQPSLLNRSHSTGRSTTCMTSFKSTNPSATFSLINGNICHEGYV
# test summary: Tested for the inhibition of Bombesin-stimulated amylase release at 5 uM concentration in rat pranceatic acini
# Assay type: functional
Where a SMILES comes first, the peptide text is derived from it. The star is where a group is joined. X1 = CSCC[C@H](NC[C@H](CC(C)C)N*)C(N)=O; X2 = CC(=O)NC[C@H](CC(C)C)N*
result type: Release (%)

The cases that follow already have their Release on record.
compound: CC(=O)NC[C@H](CC(C)C)NC(=O)[C@H](Cc1c[nH]cn1)NC(=O)CNC(=O)[C@@H](NC(=O)[C@H](C)NC(=O)[C@H](Cc1c[nH]c2ccccc12)NC(=O)[C@H](Cc1c[nH]cn1)NC(=O)[C@@H](N)CCC(N)=O)C(C)C (H-QHWAVGH-X2)
Release [%]: 3.6
//
compound: CC(=O)NC[C@H](CC(C)C)NC(=O)[C@H](Cc1c[nH]cn1)NC(=O)CNC(=O)[C@@H](NC(=O)[C@H](C)NC(=O)[C@H](Cc1c[nH]c2ccccc12)NC(=O)[C@H](Cc1c[nH]cn1)NC(=O)[C@H](N)Cc1ccccc1)C(C)C
Release [%]: 3
//
compound: CSCC[C@H](NC[C@H](CC(C)C)NC(=O)[C@H](Cc1c[nH]cn1)NC(=O)CNC(=O)[C@@H](NC(=O)[C@H](C)NC(=O)[C@@H](N)Cc1c[nH]c2ccccc12)C(C)C)C(N)=O (H-WAVGH-X1)
Release [%]: 5.3
//
compound: CSCC[C@@H](C(N)=O)N(C=O)C[C@H](CC(C)C)NC(=O)[C@H](Cc1c[nH]cn1)NC(=O)CNC(=O)[C@@H](NC(=O)[C@H](C)NC(=O)[C@H](Cc1c[nH]c2ccccc12)NC(=O)[C@H](Cc1c[nH]cn1)NC(=O)[C@@H](Cc1ccccc1)NC(=O)CN)C(C)C
Release [%]: 13.3

[1] CSCC[C@@H](C(N)=O)N(C=O)C[C@H](CC(C)C)NC(=O)[C@H](Cc1c[nH]cn1)NC(=O)CNC(=O)[C@@H](NC(=O)[C@H](C)NC(=O)[C@H](Cc1c[nH]c2ccccc12)NC(=O)[C@H](Cc1c[nH]cn1)NC(=O)[C@H](N)Cc1ccccc1)C(C)C
[2] CCCCC[C@H](CC(C)C)NC(=O)[C@H](Cc1c[nH]cn1)NC(=O)CNC(=O)[C@@H](NC(=O)[C@H](C)NC(=O)[C@H](Cc1c[nH]c2ccccc12)NC(=O)[C@@H](Cc1c[nH]cn1)NC(=O)C(C)(C)C)C(C)C
[3] CC(=O)NC[C@H](CC(C)C)NC(=O)[C@H](Cc1c[nH]cn1)NC(=O)CNC(=O)[C@@H](NC(=O)[C@H](C)NC(=O)[C@H](Cc1c[nH]c2ccccc12)NC(=O)[C@H](Cc1c[nH]cn1)NC(=O)[C@H](CCC(N)=O)NC(C)=O)C(C)C (Ac-QHWAVGH-X2)
Ask | Sort low-to-high on Release, please. Returns: the labels listed in the requested order.
Reply | 3, 2, 1

* * *

# target of assay: UniProt:P52500
# test summary: Tested for the inhibition of Bombesin-stimulated amylase release at 5 uM concentration in the presence of 0.2 nM of bombesin in rat pranceatic acini
# Format: functional
Where a SMILES comes first, the peptide text is derived from it. The star is where a group is joined. X1 = CSCC[C@H](NC[C@H](CC(C)C)N*)C(N)=O
result type: Release (%)

The cases that follow already have their Release on record.
compound: CSCC[C@H](NC[C@H](CC(C)C)NC(=O)[C@H](Cc1c[nH]cn1)NC(=O)CNC(=O)[C@@H](NC(=O)[C@H](C)NC(=O)[C@@H](N)Cc1c[nH]c2ccccc12)C(C)C)C(N)=O (H-WAVGH-X1)
unit name: %
Release: 18.1

compound: CN[C@@H](Cc1ccccc1)C(=O)N[C@@H](Cc1c[nH]cn1)C(=O)N[C@@H](Cc1c[nH]c2ccccc12)C(=O)N[C@@H](C)C(=O)N[C@H](C(=O)NCC(=O)N[C@@H](Cc1c[nH]cn1)C(=O)N[C@@H](CC(C)C)CN(C=O)[C@@H](CCSC)C(N)=O)C(C)C
unit name: %
Release: 9.9

[1] CSCC[C@@H](C(N)=O)N(C=O)C[C@H](CC(C)C)NC(=O)[C@H](Cc1c[nH]cn1)NC(=O)CNC(=O)[C@@H](NC(=O)[C@H](C)NC(=O)[C@H](Cc1c[nH]c2ccccc12)NC(=O)[C@H](Cc1c[nH]cn1)NC(=O)[C@H](N)Cc1ccccc1)C(C)C
[2] CC(=O)NC[C@H](CC(C)C)NC(=O)[C@H](Cc1c[nH]cn1)NC(=O)CNC(=O)[C@@H](NC(=O)[C@H](C)NC(=O)[C@H](Cc1c[nH]c2ccccc12)NC(=O)[C@H](Cc1c[nH]cn1)NC(=O)[C@@H](Cc1ccccc1)NC(C)=O)C(C)C
Ask | Which of the two gives a bigger number for Release: 1 or 2 ? Respond using the label that marks the chosen record.
Reply | 1
(1: 13%, 2: 3.7%)

* * *

# target of assay: Gastrin-releasing peptide receptor (Rattus norvegicus) (UniProt P52500)
# test summary: Tested for the inhibition of Bombesin-stimulated amylase release in the presence of 0.2 nM of bombesin in rat pranceatic acini
# Type: functional
Where a SMILES comes first, the peptide text is derived from it. The star is where a group is joined. X2 = CC(=O)NC[C@H](CC(C)C)N*
result type: Release (%)

molecule: CC(=O)NC[C@H](CC(C)C)NC(=O)[C@H](Cc1c[nH]cn1)NC(=O)CNC(=O)[C@@H](NC(=O)[C@H](C)NC(=O)[C@H](Cc1c[nH]c2ccccc12)NC(=O)[C@H](CCC(N)=O)NC(=O)[C@H](N)Cc1ccccc1)C(C)C
meas value: 14.6
--
molecule: CC(=O)NC[C@H](CC(C)C)NC(=O)[C@H](Cc1c[nH]cn1)NC(=O)CNC(=O)[C@@H](NC(=O)[C@H](C)NC(=O)[C@H](Cc1c[nH]c2ccccc12)NC(=O)[C@H](Cc1c[nH]cn1)NC(=O)[C@@H](N)CCC(N)=O)C(C)C (H-QHWAVGH-X2)
meas value: 14.4
--
molecule: CSCC[C@H](NC[C@H](CC(C)C)NC(=O)[C@H](Cc1c[nH]cn1)NC(=O)CNC(=O)[C@@H](NC(=O)[C@H](C)NC(=O)[C@H](Cc1c[nH]c2ccccc12)NC(=O)[C@H](CC(N)=O)NC(=O)CN)C(C)C)C(N)=O
meas value: 19.3
--
molecule: CC(=O)NC[C@H](CC(C)C)NC(=O)[C@H](Cc1c[nH]cn1)NC(=O)CNC(=O)[C@@H](NC(=O)[C@H](C)NC(=O)[C@H](Cc1c[nH]c2ccccc12)NC(=O)[C@H](Cc1c[nH]cn1)NC(=O)[C@@H](Cc1ccccc1)NC(C)=O)C(C)C
meas value: 20.2
